Reference source for all entries: ChEMBL document CHEMBL1914299

System: K562
protocol: Antitumor activity against human K562 cells by SRB colorimetric assay
Format: functional, cell-based
Measured IC50 by item
Your answer is read as µM, so omit the unit and give the number.

[
  {
    "smilesRepr": "O=C(N/N=C/c1ccccc1)c1cc2c([nH]c3ccccc32)c(-c2ccccc2)n1",
    "IC50 / µM": 79.5
  }
]

Turning now to a further compound:
So what does the record say about IC50 for CC(C)=NNC(=O)c1cc2c([nH]c3ccccc32)c(-c2ccccc2)n1 ? 6.69

====

Test system: K562
protocol: Antitumor activity against human K562 cells by SRB colorimetric assay
Assay type: functional, cell-based
Measured IC50 by item
Your answer is read as nM, so omit the unit and give the number.

So what does the record say about IC50 for CN(C)c1ccc(/C=N/NC(=O)c2cc3c([nH]c4ccccc43)c(-c3cccc([N+](=O)[O-])c3)n2)cc1 ? 240

So what does the record say about IC50 for O=C(N/N=C/c1ccccc1Cl)c1cc2c([nH]c3ccccc32)c(-c2ccccc2)n1 ? 1450

So what does the record say about IC50 for O=C(N/N=C/c1ccc([N+](=O)[O-])cc1)c1cc2c([nH]c3ccccc32)c(-c2cccc([N+](=O)[O-])c2)n1 ? 4260

====

System: K562
protocol: Antitumor activity against human K562 cells by SRB colorimetric assay
Format: functional, cell-based
metricName: IC50 (µM)
Your answer is read as µM, so omit the unit and give the number.

Some solved cases for reference:
[
  {
    "smilesRepr": "O=C(N/N=C/c1ccccc1)c1cc2c([nH]c3ccccc32)c(-c2cccc([N+](=O)[O-])c2)n1",
    "value": 1.24
  },
  {
    "smilesRepr": "O=C(N/N=C/c1ccc([N+](=O)[O-])cc1)c1cc2c([nH]c3ccccc32)c(-c2ccc(O)cc2)n1",
    "value": 3.73
  },
  {
    "smilesRepr": "O=C(N/N=C/c1ccccc1Cl)c1cc2c([nH]c3ccccc32)c(-c2ccc(O)cc2)n1",
    "value": 1.65
  },
  {
    "smilesRepr": "O=C(NN=C1CCCCC1)c1cc2c([nH]c3ccccc32)c(-c2cccc([N+](=O)[O-])c2)n1",
    "value": 87.1
  },
  {
    "smilesRepr": "CC(C)=NNC(=O)c1cc2c([nH]c3ccccc32)c(-c2ccc(N(C)C)cc2)n1",
    "value": 23.4
  }
]

So what does the record say about IC50 for CC(C)=NNC(=O)c1cc2c([nH]c3ccccc32)c(-c2ccc(O)cc2)n1 ? 18.1

So what does the record say about IC50 for O=C(N/N=C/c1ccccc1Cl)c1cc2c([nH]c3ccccc32)c(-c2ccc([N+](=O)[O-])cc2)n1 ? 6.35

So what does the record say about IC50 for CN(C)c1ccc(-c2nc(C(=O)NN=C3CCCC3)cc3c2[nH]c2ccccc23)cc1 ? 13.4

So what does the record say about IC50 for COc1ccc(/C=N/NC(=O)c2cc3c([nH]c4ccccc43)c(-c3ccc([N+](=O)[O-])cc3)n2)cc1 ? 7.54

So what does the record say about IC50 for COc1ccc(/C=N/NC(=O)c2cc3c([nH]c4ccccc43)c(-c3ccc(O)cc3)n2)cc1 ? 87.4

====

System: K562
protocol: Antitumor activity against human K562 cells by SRB colorimetric assay
Format: functional, cell-based
metricName: IC50

Some solved cases for reference:
[
  {
    "smilesRepr": "CC(C)=NNC(=O)c1cc2c([nH]c3ccccc32)c(-c2ccccc2Cl)n1",
    "value": "21.7 µM"
  },
  {
    "smilesRepr": "O=C(NN=C1CCCCC1)c1cc2c([nH]c3ccccc32)c(-c2ccc(O)cc2)n1",
    "value": "10.3 µM"
  },
  {
    "smilesRepr": "COc1ccc(-c2nc(C(=O)N/N=C/c3ccccc3)cc3c2[nH]c2ccccc23)cc1",
    "value": "3.22 µM"
  },
  {
    "smilesRepr": "COc1ccc(-c2nc(C(=O)N/N=C/c3ccc([N+](=O)[O-])cc3)cc3c2[nH]c2ccccc23)cc1",
    "value": "> 100 µM"
  }
]

So what does the record say about IC50 for O=C(N/N=C/c1ccccc1)c1cc2c([nH]c3ccccc32)c(-c2ccc([N+](=O)[O-])cc2)n1 ? 14.4 µM

====

Tested on: K562
protocol: Antitumor activity against human K562 cells by SRB colorimetric assay
Type: functional, cell-based
Measured IC50 by item

[
  {
    "smilesRepr": "COc1ccc(-c2nc(C(=O)N/N=C/c3ccccc3Cl)cc3c4ccccc4n(C)c23)cc1",
    "IC50": "> 100 µM"
  },
  {
    "smilesRepr": "COc1ccc(-c2nc(C(=O)N/N=C/c3ccccc3)cc3c4ccccc4n(C)c23)cc1",
    "IC50": "> 100 µM"
  },
  {
    "smilesRepr": "CN(C)c1ccc(/C=N/NC(=O)c2cc3c4ccccc4n(C)c3c(-c3cccc([N+](=O)[O-])c3)n2)cc1",
    "IC50": "> 100 µM"
  },
  {
    "smilesRepr": "COc1ccc(-c2nc(C(=O)NN=C3CCCC3)cc3c2[nH]c2ccccc23)cc1",
    "IC50": "> 100 µM"
  },
  {
    "smilesRepr": "COc1ccc(-c2nc(C(=O)N/N=C/c3ccccc3Cl)cc3c2[nH]c2ccccc23)cc1",
    "IC50": "2.52 µM"
  }
]

Turning now to a further compound:
So what does the record say about IC50 for O=C(NN=C1CCCC1)c1cc2c([nH]c3ccccc32)c(-c2cccc([N+](=O)[O-])c2)n1 ? > 100 µM

====

Tested on: K562
protocol: Antitumor activity against human K562 cells by SRB colorimetric assay
Assay type: functional, cell-based
Measured log10 of IC50 by item
A difference of one corresponds to tenfold IC50; all values are log10 with IC50 in µM.

Some solved cases for reference:
[
  {
    "smilesRepr": "COc1ccc(/C=N/NC(=O)c2cc3c([nH]c4ccccc43)c(-c3ccccc3)n2)cc1",
    "metricName": "log10 of IC50",
    "value": 1.16
  },
  {
    "smilesRepr": "O=C(NN=C1CCCCC1)c1cc2c([nH]c3ccccc32)c(-c2ccccc2)n1",
    "metricName": "log10 of IC50",
    "value": 1.75
  },
  {
    "smilesRepr": "O=C(N/N=C/c1ccccc1)c1cc2c([nH]c3ccccc32)c(-c2ccc(O)cc2)n1",
    "metricName": "log10 of IC50",
    "value": 0.63
  },
  {
    "smilesRepr": "COc1ccc(-c2nc(C(=O)NN=C3CCCCC3)cc3c2[nH]c2ccccc23)cc1",
    "metricName": "log10 of IC50",
    "value": 1.01
  }
]

Turning now to a further compound:
So what does the record say about log10 of IC50 for O=C(N/N=C/c1ccc([N+](=O)[O-])cc1)c1cc2c([nH]c3ccccc32)c(-c2ccccc2)n1 ? 0.63

====

System: K562
protocol: Antitumor activity against human K562 cells by SRB colorimetric assay
Assay type: functional, cell-based
pIC50: −log10 of the molar value.
metricName: pIC50

[
  {
    "smilesRepr": "O=C(NN=C1CCCC1)c1cc2c([nH]c3ccccc32)c(-c2ccc([N+](=O)[O-])cc2)n1",
    "metricName": "pIC50",
    "value": "< 4.00"
  }
]

So what does the record say about pIC50 for CN(C)c1ccc(/C=N/NC(=O)c2cc3c([nH]c4ccccc43)c(-c3ccc(O)cc3)n2)cc1 ? < 4.00

So what does the record say about pIC50 for COc1ccc(-c2nc(C(=O)NN=C3CCCC3)cc3c2[nH]c2ccccc23)cc1O ? < 4.00

====

Measured pIC50 by item
System: K562
protocol: Antitumor activity against human K562 cells by SRB colorimetric assay
Format: functional, cell-based
pIC50: −log10 of the molar value.

Some solved cases for reference:
[
  {
    "smilesRepr": "COc1ccc(-c2nc(C(=O)N/N=C/c3ccc(N(C)C)cc3)cc3c2[nH]c2ccccc23)cc1",
    "metricName": "pIC50",
    "value": "< 4.00"
  },
  {
    "smilesRepr": "O=C(N/N=C/c1ccccc1Cl)c1cc2c([nH]c3ccccc32)c(-c2cccc([N+](=O)[O-])c2)n1",
    "metricName": "pIC50",
    "value": 4.17
  }
]

# value lookup — system K562, readout pIC50, item COc1ccc(/C=N/NC(=O)c2cc3c([nH]c4ccccc43)c(-c3ccc(OC)cc3)n2)cc1 < 4.00
